Provenance of the data: patent EP0620225B1

Test system: Escherichia coli 25922
protocol-details: Efficacy against systemic infections (septicemia) in mice
Assay type: in vivo
protocol-conditions: 96 h, Escherichia coli 25922, po (orally) 1 and 3 h after challenge, survival day 4
Where a name gives a salt, the structure may show the parent alone.
assay-metric: ED50

Below: 3 compounds and their reported ED50.
Nc1nc(/C(=N/OCC(=O)O)C(=O)N[C@@H]2C(=O)N3C(C(=O)O)=C(/C=C4\CCN(CCF)C4=O)CS[C@H]23)cs1 [B, disodium salt]; < 0.1 mg/kg
COc1ccc(N2CC/C(=C\C3=C(C(=O)O)N4C(=O)[C@@H](NC(=O)/C(=N\O)c5csc(N)n5)[C@H]4SC3)C2=O)cc1; 4.5 mg/kg
Nc1nc(/C(=N/OCC(=O)O)C(=O)N[C@@H]2C(=O)N3C(C(=O)O)=C(/C=C4\CCN(CC(F)(F)F)C4=O)CS[C@H]23)cs1 [A, disodium salt]; < 0.1 mg/kg

Would you be so kind as to report ED50 for each listed record?
1. Nc1nc(/C(=N/OCC(=O)O)C(=O)N[C@@H]2C(=O)N3C(C(=O)O)=C(/C=C4\CCN(C5CC5)C4=O)CS[C@H]23)cs1 [C, disodium salt]
2. CC(C)(C)N1CC/C(=C\C2=C(C(=O)O)N3C(=O)[C@@H](NC(=O)/C(=N\O)c4csc(N)n4)[C@H]3SC2)C1=O
3. CO/N=C(\C(=O)N[C@@H]1C(=O)N2C(C(=O)O)=C(CSc3nc(=O)c(=O)[nH]n3C)CS[C@H]12)c1csc(N)n1 [Ceftriaxone, reference compound]

1: < 0.1 mg/kg; 2: > 2 mg/kg; 3: 0.9 mg/kg

###

Tested on: M.catarrhalis
assay-metric: MIC50 (µg/mL)
One number for each entry, in µg/mL.

Below: 2 compounds and their reported MIC50.
CC(C)(C)N1CC/C(=C\C2=C(C(=O)O)N3C(=O)[C@@H](NC(=O)/C(=N\O)c4csc(N)n4)[C@H]3SC2)C1=O; 8
Nc1nc(/C(=N/O)C(=O)N[C@@H]2C(=O)N3C(C(=O)O)=C(/C=C4\CCN(C5CC5)C4=O)CS[C@H]23)cs1; 4

// MIC50 lookup, compound = COc1ccc(N2CC/C(=C\C3=C(C(=O)O)N4C(=O)[C@@H](NC(=O)/C(=N\O)c5csc(N)n5)[C@H]4SC3)C2=O)cc1 , result: 8

###

Consider the following molecules; for each one, report its MIC.
System: E.coli 25922
protocol-details: Antibacterial spectrum (MIC), agar dilution
Assay type: cell-based
protocol-conditions: Escherichia coli, read-out: MIC
Protocol: In vitro activity was determined by minimum inhibitory concentration in a microorganism spectum by the agar dilution method in Mueller Hinton agar.

Below: 5 molecules and their reported MIC.
Nc1nc(/C(=N/O)C(=O)N[C@@H]2C(=O)N3C(C(=O)O)=C(/C=C4\CCN(c5cnccn5)C4=O)CS[C@H]23)cs1 [P]; ≤ 0.06 µg/mL
N#CCN1CC/C(=C\C2=C(C(=O)O)N3C(=O)[C@@H](NC(=O)/C(=N\O)c4csc(N)n4)[C@H]3SC2)C1=O [M]; ≤ 0.06 µg/mL
Nc1nc(/C(=N/O)C(=O)N[C@@H]2C(=O)N3C(C(=O)O)=C(/C=C4\CCN(CCF)C4=O)CS[C@H]23)cs1 [F]; ≤ 0.06 µg/mL
Nc1nc(/C(=N/O)C(=O)N[C@@H]2C(=O)N3C(C(=O)O)=C(/C=C4\CCN(CC(F)(F)F)C4=O)CS[C@H]23)cs1 [E]; 0.12 µg/mL
Nc1nc(/C(=N/O)C(=O)N[C@@H]2C(=O)N3C(C(=O)O)=C(/C=C4\CCN(c5ccccc5)C4=O)CS[C@H]23)cs1 [H]; 0.25 µg/mL

Switching to the query record.
E.coli 25922 data for CO/N=C(\C(=O)N[C@@H]1C(=O)N2C(C(=O)O)=C(CSc3nc(=O)c(=O)[nH]n3C)CS[C@H]12)c1csc(N)n1 [Ceftriaxone, reference compound] ; its MIC: ≤ 0.06 µg/mL
